# Experimental target: p110α/p85α (Homo sapiens (Human), UniProt P42336)
# Sequence (P42336 whole entry): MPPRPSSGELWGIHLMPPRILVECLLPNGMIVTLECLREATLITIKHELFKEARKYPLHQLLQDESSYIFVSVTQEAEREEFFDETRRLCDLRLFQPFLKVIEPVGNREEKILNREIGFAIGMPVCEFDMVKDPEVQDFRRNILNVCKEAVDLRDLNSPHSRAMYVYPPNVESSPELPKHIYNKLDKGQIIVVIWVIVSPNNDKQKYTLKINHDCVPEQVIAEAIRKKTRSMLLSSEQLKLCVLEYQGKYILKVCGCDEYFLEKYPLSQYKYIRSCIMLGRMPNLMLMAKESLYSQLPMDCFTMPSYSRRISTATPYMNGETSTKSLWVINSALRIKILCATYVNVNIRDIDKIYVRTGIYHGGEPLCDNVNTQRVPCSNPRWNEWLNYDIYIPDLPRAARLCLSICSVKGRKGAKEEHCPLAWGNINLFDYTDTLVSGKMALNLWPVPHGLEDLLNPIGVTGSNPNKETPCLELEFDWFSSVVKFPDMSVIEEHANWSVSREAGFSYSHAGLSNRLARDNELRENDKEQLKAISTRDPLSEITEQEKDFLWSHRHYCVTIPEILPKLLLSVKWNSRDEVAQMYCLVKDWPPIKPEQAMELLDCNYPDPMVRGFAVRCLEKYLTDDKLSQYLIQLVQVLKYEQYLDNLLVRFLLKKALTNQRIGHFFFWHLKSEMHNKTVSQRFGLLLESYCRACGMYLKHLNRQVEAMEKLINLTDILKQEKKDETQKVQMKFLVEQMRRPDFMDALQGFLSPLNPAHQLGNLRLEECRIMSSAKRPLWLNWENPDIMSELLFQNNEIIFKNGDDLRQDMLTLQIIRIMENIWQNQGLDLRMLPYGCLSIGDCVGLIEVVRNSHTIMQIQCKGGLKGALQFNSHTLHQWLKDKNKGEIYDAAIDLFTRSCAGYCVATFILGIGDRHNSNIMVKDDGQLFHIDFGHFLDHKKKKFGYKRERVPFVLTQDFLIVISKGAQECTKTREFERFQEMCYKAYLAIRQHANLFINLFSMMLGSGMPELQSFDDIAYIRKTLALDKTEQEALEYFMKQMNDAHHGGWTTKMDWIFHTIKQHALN
# Sequence (P27986 whole entry partner): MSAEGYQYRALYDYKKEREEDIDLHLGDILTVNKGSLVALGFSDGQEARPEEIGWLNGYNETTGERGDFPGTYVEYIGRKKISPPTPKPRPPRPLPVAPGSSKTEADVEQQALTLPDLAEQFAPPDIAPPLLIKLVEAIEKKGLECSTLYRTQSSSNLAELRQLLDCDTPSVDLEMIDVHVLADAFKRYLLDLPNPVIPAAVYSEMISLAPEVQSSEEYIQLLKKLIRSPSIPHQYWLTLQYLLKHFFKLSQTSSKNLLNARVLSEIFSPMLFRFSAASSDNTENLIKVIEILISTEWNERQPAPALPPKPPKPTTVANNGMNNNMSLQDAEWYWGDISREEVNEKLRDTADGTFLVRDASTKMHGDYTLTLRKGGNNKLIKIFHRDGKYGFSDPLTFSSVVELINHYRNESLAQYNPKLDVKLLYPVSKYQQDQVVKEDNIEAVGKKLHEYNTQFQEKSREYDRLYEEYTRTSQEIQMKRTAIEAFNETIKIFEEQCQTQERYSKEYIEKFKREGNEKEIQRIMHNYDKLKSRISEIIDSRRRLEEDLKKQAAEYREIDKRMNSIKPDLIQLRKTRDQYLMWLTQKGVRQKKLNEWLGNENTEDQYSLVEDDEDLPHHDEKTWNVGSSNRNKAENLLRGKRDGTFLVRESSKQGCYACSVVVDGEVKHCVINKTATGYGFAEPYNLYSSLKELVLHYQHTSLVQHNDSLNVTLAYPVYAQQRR
# Method notes: PI3K α inhibition assay (TLC lipid kinase or HTRF)
Assay endpoint: IC50

Output IC50 of CC(C)N(C)c1nc2ccccc2cc1Cn1nc(-c2ccc3nc(N)[nH]c3c2)c2c(N)ncnc21
> 1 µM

Output IC50 of Cc1cccc2cc(Cn3nc(I)c4c(N)ncnc43)c(N3CCCC3)nc12
> 1 µM

====

Below is a list of entries, each paired with its recorded pIC50 value.
# Experimental target: UniProt:P48736
# Sequence (P48736 whole entry): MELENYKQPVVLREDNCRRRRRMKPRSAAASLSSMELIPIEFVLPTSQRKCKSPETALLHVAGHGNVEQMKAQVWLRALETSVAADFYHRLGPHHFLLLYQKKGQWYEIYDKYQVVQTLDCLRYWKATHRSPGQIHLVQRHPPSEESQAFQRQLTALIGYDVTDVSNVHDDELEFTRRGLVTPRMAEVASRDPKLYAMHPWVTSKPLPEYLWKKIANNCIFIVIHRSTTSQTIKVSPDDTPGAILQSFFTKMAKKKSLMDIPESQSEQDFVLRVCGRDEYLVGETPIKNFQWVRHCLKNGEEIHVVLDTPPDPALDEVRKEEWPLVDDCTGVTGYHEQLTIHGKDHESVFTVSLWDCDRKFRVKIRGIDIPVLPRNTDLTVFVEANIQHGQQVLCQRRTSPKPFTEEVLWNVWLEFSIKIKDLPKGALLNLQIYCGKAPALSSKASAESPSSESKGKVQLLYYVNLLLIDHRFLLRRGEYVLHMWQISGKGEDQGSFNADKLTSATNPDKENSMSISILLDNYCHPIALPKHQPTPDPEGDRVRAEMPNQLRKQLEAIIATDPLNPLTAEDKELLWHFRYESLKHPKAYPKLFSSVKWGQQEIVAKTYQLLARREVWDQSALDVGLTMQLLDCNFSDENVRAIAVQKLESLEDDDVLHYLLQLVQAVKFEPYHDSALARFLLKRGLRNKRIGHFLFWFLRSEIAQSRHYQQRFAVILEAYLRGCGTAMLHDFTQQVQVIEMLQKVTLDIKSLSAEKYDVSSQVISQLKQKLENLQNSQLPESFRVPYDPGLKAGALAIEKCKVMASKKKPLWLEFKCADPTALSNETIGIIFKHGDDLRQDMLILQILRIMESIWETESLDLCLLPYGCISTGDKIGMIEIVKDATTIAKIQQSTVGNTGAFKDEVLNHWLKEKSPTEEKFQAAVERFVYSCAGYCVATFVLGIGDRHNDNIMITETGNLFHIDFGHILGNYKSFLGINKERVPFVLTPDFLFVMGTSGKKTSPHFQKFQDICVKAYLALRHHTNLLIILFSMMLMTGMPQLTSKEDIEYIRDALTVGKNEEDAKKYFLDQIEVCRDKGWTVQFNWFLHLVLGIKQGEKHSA
pIC50: −log10 of the molar value.

Molecule	pIC50
Nc1ncnc2c1c(-c1cccc(O)c1)nn2Cc1cc2ccccc2nc1N1CCOCC1 [Compound 64]	6.00 to 7.00
Nc1ncnc2c1c(-c1cc(O)cc(F)c1)nn2Cc1cc2ccccc2nc1NCCN1CCOCC1 [Compound 75]	< 6.00
CC(c1cc2ccccc2nc1-c1ccccc1)n1nc(C#C[C@@H](C)O)c2c(N)ncnc21 (some centres unmarked) [Compound 71]	< 6.00
NC(=O)c1nn(Cc2cc3ccccc3nc2-c2ccccc2F)c2ncnc(N)c12 [Compound 191]	< 6.00

Output pIC50 of CCn1c(=O)c(Cn2nc(-c3cc(O)cc(F)c3)c3c(N)ncnc32)cc2ccccc21 [Compound 113]
< 6.00

Output pIC50 of Cc1cccc2cc(Cn3nc(I)c4c(N)ncnc43)c(N3CCCC3)nc12 [Compound 6]
< 6.00

Output pIC50 of Nc1ncnc2c1c(-c1cc(O)cc(F)c1)nn2Cc1cc2ccccc2nc1CCN1CCCC1 [Compound 165]
< 6.00

Output pIC50 of CC(Nc1ncnc2[nH]cnc12)c1cc2ccccc2nc1N1CCCC1 (centres unmarked) [Compound 88]
< 6.00

Output pIC50 of C[C@@H](O)C#Cc1nc2ccccc2nc1Cn1nc(C#C[C@@H](C)O)c2c(N)ncnc21 [Compound 103]
< 6.00

Output pIC50 of Nc1ncnc2c1c(-c1cc(O)cc(F)c1)nn2Cc1cc2ccccc2nc1-c1cccnc1 [Compound 55]
6.00 to 7.00

Output pIC50 of CCc1nc2ccccc2cc1Cn1nc(-c2cccc(O)c2)c2c(N)ncnc21 [Compound 96]
6.00 to 7.00

Output pIC50 of Nc1ncnc2c1c(/C=C1/CCNC1=O)nn2Cc1cc2ccccc2nc1-c1ccccc1F [Compound 193]
< 6.00

Output pIC50 of Nc1ncnc2c1c(-c1cc(O)cc(F)c1)nn2Cc1cnc2ccccc2c1 [Compound 61]
> 7.00

Output pIC50 of Cc1cccc2cc(Cn3nc(-c4cccc(O)c4)c4c(N)ncnc43)c(N3CCOCC3)nc12 [Compound 66]
> 7.00

Output pIC50 of CC(=O)Nc1nc2ccc(-c3nn(Cc4cc5ccccc5nc4CCN4CCCC4)c4ncnc(N)c34)cc2s1 [Compound 166]
6.00 to 7.00

Output pIC50 of Nc1ccc2cc(-c3nn(Cc4cc5ccccc5nc4-c4ccccc4)c4ncnc(N)c34)ccc2n1 [Compound 144]
> 7.00

Output pIC50 of CCn1c(=O)c(Cn2nc(-c3cccc(O)c3)c3c(N)ncnc32)cc2ccccc21 [Compound 115]
< 6.00

====

# Experimental target: p110α/p85α (Homo sapiens (Human), UniProt P42336)
# Method notes: PI3K α inhibition assay (TLC lipid kinase or HTRF)
pIC50: −log10 of the molar value.
Below is a list of entries, each paired with its recorded pIC50 value.

Molecule	Result
Cc1ccccc1-c1nc2ccccc2cc1Cn1nc(-c2cc(O)cc(F)c2)c2c(N)ncnc21 [Compound 4]	< 6.00
Nc1ncnc2c1c(/C=C1/SC(=O)NC1=O)nn2Cc1cc2ccccc2nc1-c1ccccc1F [Compound 192]	< 6.00

Report value: pIC50, system: p110α/p85α (Homo sapiens (Human), UniProt P42336), molecule: Nc1nc2cc(-c3nn(Cc4cc5ccccc5nc4-c4ccccc4C(F)(F)F)c4ncnc(N)c34)ccc2[nH]1 [Compound 155]
< 6.00

Report value: pIC50, system: p110α/p85α (Homo sapiens (Human), UniProt P42336), molecule: Cc1ccncc1-c1nc2ccccc2cc1Cn1nc(-c2cccc(O)c2)c2c(N)ncnc21 [Compound 78]
< 6.00

====

# Experimental target: p110α/p85α (Homo sapiens (Human), UniProt P42336)
# Method notes: PI3K α inhibition assay (TLC lipid kinase or HTRF)
Assay endpoint: IC50

Some compounds with known IC50 results, for comparison:
Mol	Assay endpoint	Result
CN1CCN(c2ncccc2Cn2nc(-c3cc(O)cc(F)c3)c3c(N)ncnc32)CC1	IC50	> 1 µM
Nc1nc2cc(-c3nn(Cc4cc5ccccc5nc4-c4ccccc4F)c4ncnc(N)c34)ccc2[nH]1	IC50	0.1 to 1 µM
Cc1ccccc1-c1nc2c(C)cccc2cc1Cn1nc(-c2cc(O)cc(F)c2)c2c(N)ncnc21	IC50	> 1 µM
CCn1c(=O)c(Cn2nc(-c3cc(O)cc(F)c3)c3c(N)ncnc32)cc2ccccc21	IC50	> 1 µM
Cc1ccccc1-c1nc2c(C)cccc2cc1Cn1nc(I)c2c(N)ncnc21	IC50	> 1 µM

Output IC50 of Nc1ncnc2c1c(-c1cc(O)cc(F)c1)nn2Cc1cc2ccccc2nc1NC1CC1
> 1 µM

Output IC50 of CCc1nc2ccccc2cc1Cn1nc(-c2cc(O)cc(F)c2)c2c(N)ncnc21
> 1 µM

Output IC50 of Cc1ccccc1-c1nc2ccccc2cc1Cn1nc(-c2ccc3nc(N)ccc3c2)c2c(N)ncnc21
0.1 to 1 µM

Output IC50 of CN1CCN(c2nc3ccccc3cc2Cn2nc(-c3cnc4[nH]ccc4c3)c3c(N)ncnc32)CC1
> 1 µM

Output IC50 of CC(=O)Nc1nc2ccc(-c3nn(Cc4cc5ccccc5nc4N4CCN(C)CC4)c4ncnc(N)c34)cc2s1
0.1 to 1 µM

====

# Experimental target: p110β/p85α (Homo sapiens)
# Method notes: PI3K β inhibition assay (TLC lipid kinase or HTRF)
# Type: biochemical
# Measurement parameters: read-out: PI3K β IC50
pIC50: −log10 of the molar value.
Below is a list of entries, each paired with its recorded pIC50 value.

Some compounds with known pIC50 results, for comparison:
Compound	pIC50
Nc1ncnc2c1c(-c1ccc3cn[nH]c3c1)nn2CC1=Cc2ccccc2NC1N1CCCC1 (stereo not shown) [Compound 81]	< 6.00
CC(C)N(C)c1nc2ccccc2cc1Cn1nc(-c2cccc(O)c2)c2c(N)ncnc21 [Compound 150]	< 6.00
CNc1ncnc2c1c(-c1cc(O)cc(F)c1)nn2Cc1cc2ccccc2nc1N(C)CCN1CCOCC1 [Compound 76]	< 6.00
Nc1ncnc2c1c(-c1cc(O)cc(F)c1)nn2Cc1cc2ccccc2nc1-c1cccnc1 [Compound 55]	< 6.00
CC(=O)Nc1nc2ccc(-c3nn(Cc4cc5ccccc5nc4CCN4CCN(C)CC4)c4ncnc(N)c34)cc2s1 [Compound 169]	6.00 to 7.00

Output pIC50 of Nc1ncnc2c1c(-c1cnn(CCO)c1)nn2Cc1cc2ccccc2nc1-c1ccccc1 [Compound 179]
< 6.00

Output pIC50 of Nc1ncc2cc(-c3nn(Cc4cc5ccccc5nc4-c4ccccc4F)c4ncnc(N)c34)ccc2n1 [Compound 135]
< 6.00

====

# Experimental target: p110δ/p85α (Homo sapiens (Human))
# Sequence (O00329 whole entry): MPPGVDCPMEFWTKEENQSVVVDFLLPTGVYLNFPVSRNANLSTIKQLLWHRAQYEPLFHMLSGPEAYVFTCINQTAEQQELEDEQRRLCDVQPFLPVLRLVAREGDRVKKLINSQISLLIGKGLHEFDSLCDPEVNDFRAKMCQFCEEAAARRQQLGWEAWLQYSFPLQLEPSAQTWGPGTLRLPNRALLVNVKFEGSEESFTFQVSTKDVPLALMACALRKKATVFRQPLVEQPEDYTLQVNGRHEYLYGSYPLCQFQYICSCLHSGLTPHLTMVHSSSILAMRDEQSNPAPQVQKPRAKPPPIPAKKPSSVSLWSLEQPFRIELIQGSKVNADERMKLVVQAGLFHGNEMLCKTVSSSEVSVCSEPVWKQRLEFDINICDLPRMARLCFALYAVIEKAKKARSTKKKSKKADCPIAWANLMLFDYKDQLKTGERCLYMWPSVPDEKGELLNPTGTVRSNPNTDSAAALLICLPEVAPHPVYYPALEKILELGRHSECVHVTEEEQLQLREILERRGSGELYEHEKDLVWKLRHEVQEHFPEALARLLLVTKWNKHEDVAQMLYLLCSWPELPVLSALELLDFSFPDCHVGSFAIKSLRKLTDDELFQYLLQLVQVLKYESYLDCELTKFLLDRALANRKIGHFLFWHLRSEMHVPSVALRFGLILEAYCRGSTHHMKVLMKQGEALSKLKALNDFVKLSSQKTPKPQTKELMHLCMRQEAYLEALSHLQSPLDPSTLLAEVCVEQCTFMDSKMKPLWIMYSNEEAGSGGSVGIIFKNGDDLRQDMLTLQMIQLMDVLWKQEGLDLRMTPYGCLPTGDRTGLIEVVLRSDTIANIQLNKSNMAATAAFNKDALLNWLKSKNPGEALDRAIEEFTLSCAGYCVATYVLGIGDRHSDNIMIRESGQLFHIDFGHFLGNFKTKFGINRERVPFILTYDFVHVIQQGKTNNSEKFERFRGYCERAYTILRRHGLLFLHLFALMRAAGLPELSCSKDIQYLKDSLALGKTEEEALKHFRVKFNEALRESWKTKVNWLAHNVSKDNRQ
# Sequence (P27986 whole entry partner): as the sequence (P27986 whole entry partner) above
# Method notes: PI3K δ inhibition assay (TLC lipid kinase or HTRF)
pIC50: −log10 of the molar value.
Below is a list of entries, each paired with its recorded pIC50 value.

Some compounds with known pIC50 results, for comparison:
Compound	pIC50
CCc1nc2ccccc2cc1Cn1nc(-c2cccc(O)c2)c2c(N)ncnc21	> 7.00
Nc1ncnc2c1c(-c1ccnc(O)c1)nn2Cc1cc2ccccc2nc1-c1ccccc1F	< 6.00
Nc1ncc(-c2nn(Cc3cc4ccccc4nc3-c3ccccc3F)c3nccc(N)c23)cn1	< 6.00
Nc1ncnc2c1c(-c1cc(O)cc(F)c1)nn2Cc1cc2ccccc2nc1N1CCCCC1	> 7.00

Output pIC50 of CC(C)Nc1nc2ccccc2cc1Cn1nc(-c2cc(O)cc(F)c2)c2c(N)ncnc21
6.00 to 7.00

Output pIC50 of Cc1ccccc1-c1nc2ccccc2cc1Cn1nc(-c2cccc(O)c2)c2c(N)ncnc21
> 7.00

Output pIC50 of Cc1ccccc1-c1nc2c(C)cccc2cc1Cn1nc(-c2cc(O)cc(F)c2)c2c(N)ncnc21
> 7.00

Output pIC50 of Nc1nc2ccc(-c3nn(Cc4cc5ccccc5nc4-c4ccccc4F)c4ncnc(N)c34)cc2s1
> 7.00

Output pIC50 of CN1CCN(c2nc3ccccc3cc2Cn2nc(-c3ccc4cc(N)sc4c3)c3c(N)ccnc32)CC1
> 7.00

Output pIC50 of C=Cc1nn(Cc2cc3ccccc3nc2-c2ccccc2F)c2ncnc(N)c12
< 6.00

Output pIC50 of CC(c1cc2ccccc2nc1N1CCCC1)n1nc(-c2cccc(O)c2)c2c(N)ncnc21 (stereo not drawn)
> 7.00

Output pIC50 of CC(Nc1ncnc2[nH]cnc12)c1cc2ccccc2nc1N1CCCC1 (stereo not drawn)
6.00 to 7.00
